protocolNotes: Example 7 cell viability assay (CellTiter-Glo) in Vero E6 cells
conditionSummary: monkey
valueKind: CC50 at 48.5 h
Value and unit, in that order.

(Q) Can you share its CC50 at 48.5 h? I mean this compound: "CCC(CC)COC(=O)[C@H](C)N[P@](=O)(OC[C@H]1O[C@@](C#N)(c2ccc3c(N)ncnn23)[C@H](O)[C@@H]1O)Oc1ccccc1"
(A) 101 µM

* * *

protocolNotes: Example 7 cytotoxicity, summary across all cell lines
Format: cell-based
conditionSummary: monkey, human; five cell types of Example 7, 48 hours
valueKind: CC50 at 48 h

(Q) Can you share its CC50 at 48 h? I mean this molecule: "CCC(CC)COC(=O)[C@H](C)N[P@](=O)(OC[C@H]1O[C@@](C#N)(c2ccc3c(N)ncnn23)[C@H](O)[C@@H]1O)Oc1ccccc1"
(A) ≥ 15.2 µM
